Values were extracted from ChEMBL document CHEMBL4513216.

Experiment: Toxicity liver stage against HepG2, at 10uM
Type: cell-based
Design: test concentration 10 uM, cell line HepG2-A16-CD81EGFP
Details: human, HepG2-A16-CD81EGFP cells; read-out: INHIBITION
Parameter: cytotoxicity at 10 µM

>>> print(df.to_string())
                                   compound              parameter  experimental_value
0  CSCCN1CCC(NC(=O)c2cccc(C3CCCNC3)c2)CC1 (stereo unspecified)  cytotoxicity at 10 µM               0.49%
1  COCC1CN(Cc2cc(C)on2)Cc2cnn(C)c21 (stereo unspecified)  cytotoxicity at 10 µM               6.22%
2  CCC(=O)N1CCCC(Cn2cc(-c3ccc(F)cc3)nn2)C1 (stereo unspecified)  cytotoxicity at 10 µM               2.89%
3        CCc1nc(CC)n(CC(=O)NCc2cccc(C)c2)n1  cytotoxicity at 10 µM              -2.25%
4     CC[C@H](CO)NC(=O)c1coc(COc2ccccc2F)n1  cytotoxicity at 10 µM               5.21%
5  CN(C)C(C(=O)N1CCN(C(=O)c2ccc[nH]2)CC1)c1ccc(F)cc1 (stereo unspecified)  cytotoxicity at 10 µM              -5.19%

====

Collected cytotoxicity at 10 µM values appear next to each entry.
Assay: Toxicity liver stage against HepG2, at 10uM
Type: cell-based
Parameters: test concentration 10 uM, cell line HepG2-A16-CD81EGFP
Conditions: human, HepG2-A16-CD81EGFP cells; read-out: INHIBITION
Parameter: cytotoxicity at 10 µM (%)

In [3]: df
Out[3]:
                                    compound              parameter  experimental_value
 0  O=C(C1CCC1)N1CC[C@@H]2CN(Cc3cccnc3)S(=O)(=O)[C@@H]2CC1  cytotoxicity at 10 µM                -109
 1  COc1ccc(OC)c(C2CCN(C3CCN(C(C)=O)CC3)C2)c1 (stereo unspecified)  cytotoxicity at 10 µM                -3.2
 2         CNc1nc(CNC(=O)Nc2cccc(Cl)c2OC)cs1  cytotoxicity at 10 µM               -12.4
 3  Cc1ccc(OC[C@@H]2CNC[C@H](C(=O)NCC3CCCO3)C2)cn1 (stereo partly specified)  cytotoxicity at 10 µM               -8.14
 4  CCCC1(CO)CCCN(C(=O)CNC(N)=O)C1 (stereo unspecified)  cytotoxicity at 10 µM                0.83
 5               O=C(O)c1cnc(OCC2CC2)c(Br)c1  cytotoxicity at 10 µM                9.38
 6  Cc1cccc(-c2ccc3nc(C4CCN(CC5CC5)CC4)nn3c2)c1  cytotoxicity at 10 µM               -12.2
 7  Cc1nccn1C1CCCN(C(=O)c2cnn(C)c2C2CC2)C1 (stereo unspecified)  cytotoxicity at 10 µM               -5.92
 8      O=C(NCCNc1ncccn1)C1CCN(CC(F)(F)F)CC1  cytotoxicity at 10 µM                -5.6
 9  Cc1cc(CN2CCC(C3Nc4ccccc4S(=O)(=O)N3)CC2)oc1C (stereo unspecified)  cytotoxicity at 10 µM                4.22
10  CC(NC(=O)c1ccoc1)c1ccc2c(c1)CCC(=O)N2 (stereo unspecified)  cytotoxicity at 10 µM               -1.36

====

cytotoxicity at 10 µM by entry:
Experiment: Toxicity liver stage against HepG2, at 10uM
Assay type: cell-based
Parameters: test concentration 10 uM, cell line HepG2-A16-CD81EGFP
Conditions: human, HepG2-A16-CD81EGFP cells; read-out: INHIBITION
Parameter: cytotoxicity at 10 µM

In [3]: df
Out[3]:
                                   molecule  experimental_value
0                Cc1occc1C(=O)N1CCCS1(=O)=O                -11%
1  Cc1nc(N2CCC(CC(=O)N3CCCC3)CC2)c2cnn(C)c2n1              0.866%
2  CC(Nc1cnn(C)c(=O)c1Cl)c1ccc(F)cc1 (stereo unspecified)               20.7%
3  NC(=O)Nc1cccc(C(=O)N(Cc2ccc(F)cc2)C2CC2)c1              -10.1%
4      Cc1nnc2ccc(N3CCN(CCc4ccccn4)CC3)nn12              -8.76%
5        COc1ccc(CNCc2c(C(C)C)nn(C)c2OC)cn1              -10.9%

====

Test: Toxicity liver stage against HepG2, at 10uM
Format: cell-based
Design: test concentration 10 uM, cell line HepG2-A16-CD81EGFP
Settings: human, HepG2-A16-CD81EGFP cells; read-out: INHIBITION
Reported values of cytotoxicity at 10 µM for individual entries
Parameter: cytotoxicity at 10 µM

>>> df
                                    compound              parameter  experimental_value
 0  COCC1CC2(CCN(C(=O)c3cccc(C)c3)CC2)CO1 (stereo unspecified)  cytotoxicity at 10 µM              -5.15%
 1    CCc1ccc(C(=O)N2CCC(Nc3ccc(C)nn3)CC2)o1  cytotoxicity at 10 µM                -11%
 2  CCCN1CC2(CCN(c3ccc(C(C)=O)cn3)CC2)CC1C(=O)O (stereo unspecified)  cytotoxicity at 10 µM             -0.909%
 3  CCOC(=O)C(C)NC(=O)CCSc1ccc(F)cc1 (stereo unspecified)  cytotoxicity at 10 µM               9.13%
 4  O=C(c1ccc(F)cc1)N1C[C@@H]2OCCN(c3ncccn3)[C@@H]2C1  cytotoxicity at 10 µM              -9.55%
 5               NCc1ccc(Oc2cccc(Cl)c2Cl)nc1  cytotoxicity at 10 µM               4.75%
 6  O=C(Cc1ccccn1)N1C[C@H]2CCC[C@@]2(COc2ccccn2)C1  cytotoxicity at 10 µM               1.86%
 7  CC(C)c1nc(CN2CCOC(Cn3cncn3)C2)cs1 (stereo unspecified)  cytotoxicity at 10 µM              -4.39%
 8  O=C(CSc1ccc2c(c1)OCCO2)NS(=O)(=O)c1ccccc1F  cytotoxicity at 10 µM               1.98%
 9  CN(C)c1cc(C2CCCN2Cc2ccccc2OCC(=O)O)ccn1 (stereo unspecified)  cytotoxicity at 10 µM               -3.8%
10  CCC1CN(C(=O)NCc2cccnc2-n2cccn2)CCO1 (stereo unspecified)  cytotoxicity at 10 µM              -12.5%

====

Test: Toxicity liver stage against HepG2, at 10uM
Format: cell-based
Design: test concentration 10 uM, cell line HepG2-A16-CD81EGFP
Conditions: human, HepG2-A16-CD81EGFP cells; read-out: INHIBITION
Here the recorded cytotoxicity at 10 µM is given for each entry.
Parameter: cytotoxicity at 10 µM (%)

>>> df
                                    molecule  units_label  experimental_value
 0       CC(C)CN1CCC(NC(=O)c2ccc(F)cc2Cl)CC1            %               -17.1
 1          NC(=O)COc1ccc(CNCc2ccc(F)cc2)cc1            %               -2.05
 2                    O=C(O)c1ncccc1N1CCCCC1            %                4.19
 3     c1ccc(CN2CCc3nnc(COc4ccccn4)n3CC2)nc1            %                -2.1
 4  Cc1cnn(CCNCC(O)COc2c(C)ccc(C)c2C)c1 (stereo not given)            %               -8.78
 5  CCC(C)N(Cc1ccncc1)C(=O)CCC(=O)OC (stereo not given)            %               -14.5
 6  COC[C@]1(O)CCN(C(=O)c2ccc(CN(C)C)o2)CC1(C)C            %                4.35
 7     Cc1nc2ccnn2c(C)c1CCC(=O)N1CCN(CCO)CC1            %               -6.29
 8  CNC(=O)c1ccc(C2CN(C(=O)COC)CCO2)nc1 (stereo not given)            %                3.25
 9  Cc1cccc(NC2CCN(C(=O)Nc3cccc4[nH]ccc34)CC2)n1            %               -6.85
10  CC(=O)N1CCO[C@@H]2CN(Cc3cccc(Cl)c3)C[C@@H]2C1            %                -104
11                    N#Cc1cc(F)ccc1Cn1cncn1            %                11.4
12     CCc1cc(-c2ccnc3c2ccn3C)nc(N2CCOCC2)n1            %               -7.09
13  O=C([C@H]1C[C@H]2OCC[C@H]2N(C(=O)c2ccccn2)C1)N1CCCCO1            %                13.1
14          Cc1ccsc1CN(CCCC(F)(F)F)Cc1ccccn1            %               0.107
15  Cc1cccc(CN2CCC3(CCCN(Cc4cnn(C)c4)C3)C2)n1 (stereo not given)            %                -113
16  O=C(c1cnc(NCC2CCCO2)c(Cl)c1)N1CCCCC1 (stereo not given)            %               0.139
17  Cn1nc(CN2CCCC2)c2c1CN(C(=O)c1ccc[nH]1)CC2            %                6.86
18  CC(c1cc(F)ccc1F)N(C)Cc1nc2c(cnn2C)c(=O)[nH]1 (stereo not given)            %                -7.8
19  N#Cc1ccc(F)c(CN2CCCC2Cn2cnc3ccccc32)c1 (stereo not given)            %               0.224
20  CCCOc1cc(Cl)c(CN2CCNC(C(=O)NC3CC3)C2)cc1OC (stereo not given)            %               0.508
21          Cc1cnn(CCNCc2ccccc2OCc2ccccn2)c1            %                3.03
22  CCc1nsc(NC2CC(=O)N(C(C)(C)C)C2)n1 (stereo not given)            %                 5.6
23  CCc1nc(N)sc1C(=O)N1CCC(c2cc(O)nc(C)n2)CC1            %               -2.56
24  Cc1ccc(C(=O)N2CCC[C@@H]2Cn2nnc3c(O)nc(C)nc32)cc1            %               -10.3
